# System: THRa homodimer (NR concentration 90 nM)
# protocolSummary: PBM binding z-score (relative to random genomic background probes); higher = stronger binding; sequences stand for … in GC…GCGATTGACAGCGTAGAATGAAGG
Measured PBM binding z-score, listed per entry.

>  <orderedResidues>
CCGAGTAGGTTACGAGGGGGCATTTAGTGCGAAT

>  <PBM binding z-score>
0.585

$$$$
>  <orderedResidues>
CCTACTGGGCCATTCAGAGGTCATTGATCATATG

>  <PBM binding z-score>
1.18

$$$$
>  <orderedResidues>
CCGAGTTGGTTACGAGGGGGCATTCAGTGCGAAT

>  <PBM binding z-score>
0.911

$$$$
>  <orderedResidues>
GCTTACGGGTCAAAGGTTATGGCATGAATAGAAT

>  <PBM binding z-score>
0.408

$$$$
>  <orderedResidues>
CCTACTGGGCCAAGCTCATTGATCAGTCAAAGCA

>  <PBM binding z-score>
-0.701

$$$$
>  <orderedResidues>
CGAACTAGGTCAAAGGATAGTGAAAGGCGACGTA

>  <PBM binding z-score>
0.17

$$$$
>  <orderedResidues>
CGAACTAGGTCACCAGGGCAGTGAAGAGGTTGGA

>  <PBM binding z-score>
1.39

$$$$
>  <orderedResidues>
TCAGATAGGTAAAGGTGAAAGTCGAACGATATGA

>  <PBM binding z-score>
-0.218

$$$$
>  <orderedResidues>
TAGCCTAAGTCATGGGCCAGTATACCACGCGAAC

>  <PBM binding z-score>
-0.257

$$$$
>  <orderedResidues>
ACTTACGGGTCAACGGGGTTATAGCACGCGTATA

>  <PBM binding z-score>
1.08

$$$$
>  <orderedResidues>
CCTTACGGGTCACTCAAGGTTATAGCATCGGAGT

>  <PBM binding z-score>
1.01

$$$$
>  <orderedResidues>
CAAACTAGGTCAAAGGTCAAGGTCGAGCCAACCA

>  <PBM binding z-score>
2.98

$$$$
>  <orderedResidues>
TCTTGTAGATCAAAGCTTAAGAAAGCCGAAGCCT

>  <PBM binding z-score>
-1.01

$$$$
>  <orderedResidues>
CCGAGTGGGTTACGAGGGGGCATTCAGTGCGAAT

>  <PBM binding z-score>
0.652

$$$$
>  <orderedResidues>
GATACAAGGTCAGCTAGAGGCCAGAGTATGGAAA

>  <PBM binding z-score>
1.18

$$$$
>  <orderedResidues>
GCTGCTAGGTCAACTGATGGTCAGCTAAAGCTCG

>  <PBM binding z-score>
0.814

$$$$
>  <orderedResidues>
CCTAGTTGGTCAGGTGGTCACACACCGGATATGA

>  <PBM binding z-score>
0.259

$$$$
>  <orderedResidues>
ATATGCAGGTTATCGGGTCATTCAGTTTGCGCAT

>  <PBM binding z-score>
2.55

$$$$
>  <orderedResidues>
ATATGTAGGTTAGGGTCACTCAGAAAGTAGGGAA

>  <PBM binding z-score>
3.46

$$$$
>  <orderedResidues>
CTATGTAGGTTAAGGGGGTCATTCAGTTTGAAAG

>  <PBM binding z-score>
2.19

$$$$
>  <orderedResidues>
CCGAGTAGCTTACGAGGGGGCATTCAGTGCGAAT

>  <PBM binding z-score>
-0.07

$$$$
>  <orderedResidues>
CGAACTTGGTCAAAGGACAGTGAAAGGCGACGTA

>  <PBM binding z-score>
-0.391

$$$$
>  <orderedResidues>
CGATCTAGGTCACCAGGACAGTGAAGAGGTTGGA

>  <PBM binding z-score>
2.13

$$$$
>  <orderedResidues>
CGAACTAGGTCCCCAGGACAGTGAAGAGGTTGGA

>  <PBM binding z-score>
0.258

$$$$
>  <orderedResidues>
CCGAGTAGGTTACGAGGCGGCATTCAGTGCGAAT

>  <PBM binding z-score>
-0.252

$$$$
>  <orderedResidues>
CTCGAAAGGTCGTGCTCAGGTGAGTATGCCAAAC

>  <PBM binding z-score>
0.926

$$$$
>  <orderedResidues>
CTCCAAAGGTCGGTTGAGGTGAGTATACGGATAA

>  <PBM binding z-score>
1.56

$$$$
>  <orderedResidues>
CTATGCAGGTTAAGGGGGTCATTCAGTTTGAAAG

>  <PBM binding z-score>
2.28

$$$$
>  <orderedResidues>
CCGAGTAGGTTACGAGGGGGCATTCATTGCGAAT

>  <PBM binding z-score>
0.405

$$$$
>  <orderedResidues>
CTAACTAGGTCAAGGTCAAAGTCGGTTTGTGCCA

>  <PBM binding z-score>
3.77

$$$$
>  <orderedResidues>
TGTCAAAGTTCTAAGGTAACGTAAGTATCCACAC

>  <PBM binding z-score>
2.43

$$$$
>  <orderedResidues>
AGTGAAAGTTCAGGACGAGGTAACGTAAAGCACG

>  <PBM binding z-score>
1.95

$$$$
>  <orderedResidues>
ATCTGTAGGTTAGGGTCATTCAGAAAGTAGGGAA

>  <PBM binding z-score>
3.53

$$$$
>  <orderedResidues>
CCGAGTAGGTTACGAGGGTGCATTCAGTGCGAAT

>  <PBM binding z-score>
-0.985

$$$$
>  <orderedResidues>
CCGAGTAGGTTACGGGGGGGCATTCAGTGCGAAT

>  <PBM binding z-score>
3.04

$$$$
>  <orderedResidues>
CGAACTAGCTCACCAGGACAGTGAAGAGGTTGGA

>  <PBM binding z-score>
0.613

$$$$
>  <orderedResidues>
CTATGTAGGTTTAGGGGGTCATTCAGTTTGAAAG

>  <PBM binding z-score>
1.9

$$$$
>  <orderedResidues>
TCTAGTTGGTCAAAGGCCACACACTCGAAATGCG

>  <PBM binding z-score>
0.029

$$$$
>  <orderedResidues>
CGTCAAAGTTCATGGTAACGTAACAGAAAGCAGC

>  <PBM binding z-score>
-0.212

$$$$
>  <orderedResidues>
TCGAGTAGGTTAAGGGGGCATTCAGGGATGAAGA

>  <PBM binding z-score>
1.48

$$$$
>  <orderedResidues>
CCTACTGGGCCAATGTCATTGATCAGTCAAAGCA

>  <PBM binding z-score>
-0.837

$$$$
>  <orderedResidues>
CTATGTAGGTTAAGGGGGCCATTCAGTTTGAAAG

>  <PBM binding z-score>
0.914

$$$$
>  <orderedResidues>
CGAACTATGTCACCAGGACAGTGAAGAGGTTGGA

>  <PBM binding z-score>
0.878

$$$$
>  <orderedResidues>
CCGACTGGGGCAACGGTTACCATACTCAGTACGA

>  <PBM binding z-score>
-0.243

$$$$
>  <orderedResidues>
CGAGCTAGGTCAAAGGACAGTGAAAGGCGACGTA

>  <PBM binding z-score>
0.253

$$$$
>  <orderedResidues>
CGTCCAAGGTCAAGGTCACTGAAAGAGACTCGAA

>  <PBM binding z-score>
4.35

$$$$
>  <orderedResidues>
AGAGTGAGGTTACCAAAGATCAGGGAAACGCTTG

>  <PBM binding z-score>
1.16

$$$$
>  <orderedResidues>
ATCGAAAGGTCGAAGGTGACTATACCCACCCGAA

>  <PBM binding z-score>
0.209

$$$$
>  <orderedResidues>
CCTACTGGGCCATGAAAGGTCATTGATTCAGTGA

>  <PBM binding z-score>
0.811

$$$$
>  <orderedResidues>
CGGCCAAGGTCAAAGGTCAGTGAAGAGATGACGG

>  <PBM binding z-score>
2.52

$$$$
>  <orderedResidues>
TAGCCTAGGTCCTTCAGGGGCCAGTATAGAAAGC

>  <PBM binding z-score>
-0.799

$$$$

* * *

# Tested on: PPARg:RXRa DBDmut IVT, anti-RXR (DBD mutation: RXRa K156A/R161A, NR concentration 270 nM, RXRa partner concentration 90 nM)
# protocolSummary: PBM binding z-score (relative to random genomic background probes); higher = stronger binding; sequences stand for … in GC…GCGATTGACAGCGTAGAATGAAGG
Each entry below lists one item and its recorded PBM binding z-score value.

>  <orderedResidues>
GTACCAAGGTGAATAGGTCGTTGATGAGTAGGCG

>  <PBM binding z-score>
1.99

$$$$
>  <orderedResidues>
CCTAGTTGGCCAAGGTCACACACGCTATAGGTAC

>  <PBM binding z-score>
1.76

$$$$
>  <orderedResidues>
ATCGGAAGGTCGAGGTGAGTATAGAGAAAGGGAA

>  <PBM binding z-score>
0.383

$$$$
>  <orderedResidues>
CCTACTGGGGCAAAGGTCATTGATTCCAATGCTC

>  <PBM binding z-score>
6.11

$$$$
>  <orderedResidues>
CGTCCAAGGTCAGAGAGGTCAGTGACTGCCGAGT

>  <PBM binding z-score>
3.1

$$$$
>  <orderedResidues>
TAGCCTAGGCCATGGGCCAGTATACCACGCGAAC

>  <PBM binding z-score>
-0.977

$$$$
>  <orderedResidues>
CCTACTGGGCCAAAGGCCATTGATTCCAATGCTC

>  <PBM binding z-score>
3.67

$$$$
>  <orderedResidues>
CAAACTAGGTCAAAGGTCAAAGCCGAGCCAACCA

>  <PBM binding z-score>
8.36

$$$$
>  <orderedResidues>
ATATGTAGGTAACATCCGGGTCATTCAGGCTATG

>  <PBM binding z-score>
6.71

$$$$
>  <orderedResidues>
AGTCAGAGTTCATCTAGGTAACGTAAGATATGCT

>  <PBM binding z-score>
0.73

$$$$
>  <orderedResidues>
CGTCAAAGTTCAAGGTAATGTAACAGAAAGCAGC

>  <PBM binding z-score>
0.0949

$$$$
>  <orderedResidues>
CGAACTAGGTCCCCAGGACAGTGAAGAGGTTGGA

>  <PBM binding z-score>
3.03

$$$$
